# EXPERIMENT SUMMARY: inhibition of NOD2-driven NF-kB reporter – cell-based, luminescence, uHTS, HEK293 (AID 1566)
# CONDITION DESCRIPTION: HEK293 NOD2/NF-kB luciferase reporter, at 4 µM, hits give high values
The whole screen tested about 290,000 compounds, of which about 1,800 (0.62%) were called active. Many of the other results were omitted from the sample, so actives are more common in it than they were.
QUANTITY KIND: inhibition

Record excerpt, results attached:
CC1CCN(C(=O)Cn2c(=O)oc3ccccc32)CC1 = -2.3% (inactive)
CC(C)Nc1ncnc2ccc(Br)cc12 = 43% (inactive)
O=C(NN1CCOCC1)c1ccc(S(=O)(=O)N2CCCCC2)cc1 = 4.3% (inactive)

Now consider a different compound.
Challenge: Name the recorded inhibition of the item CCOc1ccccc1-n1c(SCC(=O)N2CCOCC2)nc2ccccc2c1=O in your answer.
Response given: 24.9% (inactive)

* * *

# EXPERIMENT SUMMARY: inhibition of NOD2-driven NF-kB reporter – cell-based, luminescence, uHTS, HEK293 (AID 1566)
# CONDITION DESCRIPTION: HEK293 NOD2/NF-kB luciferase reporter, at 4 µM
Screen size: about 290,000 compounds; about 1,800 (0.62%) were called active. Cut-off read from the data, not from the text of the source: active = inhibition above about 50%; inactive = the rest. For the sample, actives were picked, then their nearest neighbours and some compounds at random.
Pick one and only one: active, inactive

Challenge: Which outcome was assigned to COc1ccc(-c2nn(C)c(=O)c3ccccc23)cc1NC(=O)COc1ccccc1 in this test?
Response given: inactive

* * *

The entries below come with measured inhibition values attached.
# EXPERIMENT SUMMARY: inhibition of NOD2-driven NF-kB reporter – cell-based, luminescence, uHTS, HEK293 (AID 1566)
# CONDITION DESCRIPTION: HEK293 NOD2/NF-kB luciferase reporter, at 4 µM, hits give high values
Among all 290,000 compounds or so, about 1,800 (0.62%) were called active. The sample as a whole holds a higher share of actives than the screen did.
Write the answer as a number in %, unit excluded.

Worked cases, inhibition given:
NC(=O)CSc1nnc(-c2ccccc2Br)n1-c1cccc(C(F)(F)F)c1 = 5.9
O=C(O)CSc1cc(NS(=O)(=O)c2cccc([N+](=O)[O-])c2)c2ccccc2c1O = 16.9
O=S(=O)(Nc1cc(Sc2cccc3cccnc23)c(O)c2ccccc12)c1ccccc1 = 95.9
O=C(O)c1ccc(/C=C2\CCCc3c2nc2ccccc2c3C(=O)O)cc1 = 8.2
CCc1cccc(C)c1NC(=O)c1ccoc1C = 4.5
CCCn1ncc(CN2CCCC(C(=O)c3cccc(OC(C)C)c3)C2)c1C (stereo not drawn) = -35.2

Challenge: Give inhibition for the following compound: O=c1c2ccccc2cnn1CCOc1ccccc1
Response given: 60.4

Challenge: Return inhibition (reported value) for this compound: CC(C)c1ccc(C(C)NCCS(=O)(=O)c2ccc(Br)cc2)cc1 (stereo not drawn)
Response given: -12.3

Challenge: Give reported inhibition value for CC1=NN(C(=O)Cn2ccc([N+](=O)[O-])n2)C(O)(C(F)(F)F)C1 (stereo not drawn)
Response given: 12.1

Challenge: Give inhibition for Cc1cccc(Nc2nc(N)nc(CSC(=S)N3CCOCC3)n2)c1
Response given: -21.1

Challenge: Identify measured inhibition corresponding to O=c1c2ccccc2cnn1CCOc1cccc(Br)c1
Response given: -63.9

Challenge: Hello, please tell me recorded inhibition for this one: O=C(NC1CCCCCC1)c1ccc(OCC2CCCO2)cc1 (stereo not drawn)
Response given: -82

Challenge: Output inhibition of COc1cccc(/C=N/Nc2ncnc(N)c2[N+](=O)[O-])c1OC
Response given: -39.2

Challenge: Indicate its recorded inhibition; the compound in question is CN1/C(=C\C=C(/C#N)C(=O)Nc2ccccc2F)C(C)(C)c2ccccc21
Response given: 23.2

Challenge: Fill in inhibition for record CC(=O)Oc1cccc(NC(=O)c2ccc3c(c2)C(=O)N(CC(C)C)C3=O)c1
Response given: -7.8

Challenge: Report inhibition for CCc1ccc(OCC(=O)NC(=S)Nc2ccc(C(C)=O)cc2)c(Br)c1
Response given: 41.8

Challenge: Complete the entry with inhibition for COc1ccc(Oc2nc3c(c(=O)n(C)c(=O)n3C)n2C)cc1
Response given: 26.2

Challenge: Please look at this compound and report its inhibition: Cc1ccccc1-n1c(C)cc(/C=N/Nc2ccc([N+](=O)[O-])cn2)c1C
Response given: -29.9

Challenge: Determine its reported inhibition: COc1cc(CN2CCC(Cc3ccccc3)CC2)cc([N+](=O)[O-])c1O
Response given: -1.9

Challenge: Please give the documented inhibition of O=S(=O)(Nc1cc(Sc2ncn[nH]2)c(O)c2ccccc12)c1ccccc1
Response given: 19

Challenge: Tell me its inhibition given COCc1cc(C)nc(SCC(=O)Nc2ccc(N3CCOCC3)cc2)c1C#N as the entry.
Response given: 5

Challenge: Determine its reported inhibition: COc1ccc2cnn(CCOc3ccccc3)c(=O)c2c1OC
Response given: -68.5

Challenge: Answer with the recorded inhibition of COc1cccc(OCCn2c(C)c(/C=N/n3cnnc3)c3ccccc32)c1 only.
Response given: 10.9

Challenge: Identify measured inhibition corresponding to Cc1cc(/C=N/Nc2ccc([N+](=O)[O-])cn2)c(C)n1-c1ccccc1
Response given: 8.4

Challenge: Consider the compound CC(NCCS(=O)(=O)c1ccc(Cl)cc1)c1cccc(Cl)c1 (stereo not drawn) and give its recorded inhibition.
Response given: 54.1

Challenge: Recall and state the measured inhibition for O=C(O)c1c2c(nc3ccccc13)/C(=C/c1ccc(O)cc1)CCC2 .
Response given: 11.1

Challenge: // Input: Cc1cc(Br)c(S(=O)(=O)NCc2ccncc2)cc1C . Output its inhibition only.
Response given: 48.6

Challenge: Note inhibition for the compound shown: COc1ccccc1Cn1c(=S)[nH]c2cc(C(=O)NCCN(C)C)ccc2c1=O
Response given: 20.6

src = PubChem BioAssay AID1566
